# assay: Compound stability in rat liver microsomes
# Format: in vitro ADME
# conditions: pH 7.4, in vivo CLint extrapolated
measure: CLint scaled (mL/min/kg)

>>> quantitative_readout("Cc1nn(C)cc1Nc1ncc(Cl)c(NC2CCN(c3ccc(C#N)nn3)CC2)n1")
105
>>> quantitative_readout("Cc1cc(Nc2ncc(Cl)c(NC3CCN(c4ccc(C#N)cn4)CC3)n2)n[nH]1")
33.3
>>> quantitative_readout("Cc1nn(C)cc1Nc1ncc(Cl)c(NC2CCN(c3ccc(C#N)cn3)CC2)n1")
142
>>> quantitative_readout("CCC1CN(c2ccc(C#N)cn2)CCC1N(C)c1nc(Nc2ccc3c(C)n(C)nc3c2)ncc1Cl (stereo not drawn)")
166
>>> quantitative_readout("Cn1cc2ccc(Nc3ncc(Cl)c(NC4CCN(c5ccc(C#N)nn5)CC4)n3)cc2n1")
120
>>> quantitative_readout("Cc1c2ccc(Nc3ncc(Cl)c(NC4CCN(c5ccc(C#N)cn5)CC4)n3)cc2nn1C")
107

(P) Cn1cc(Nc2ncc(Cl)c(NC3CCN(c4ccc(C#N)cn4)CC3)n2)cn1
(Q) CCC1CN(c2ccc(C#N)cn2)CCC1Nc1nc(Nc2cn(C)nc2C)ncc1Cl (stereo not drawn)
Looking at recorded values for CLint scaled, does P or Q come in lower? The response must carry the label of the picked entry. P
(P: 89.7 mL/min/kg, Q: 363 mL/min/kg)

* * *

# assay: Pharmacokinetics after intravenous and oral administration in rats
# Format: in vivo
# conditions: oral bioavailability
measure: F (%)

>>> quantitative_readout("Cc1cc(Nc2ncc(Cl)c(NC3CCN(c4ccc(C#N)cn4)CC3)n2)n[nH]1")
112.01
>>> quantitative_readout("Cc1nn(C)cc1Nc1ncc(Cl)c(N(C)C2CCN(c3ccc(C#N)cn3)CC2)n1")
107.1
>>> quantitative_readout("Cc1nn(C)cc1Nc1ncc(Cl)c(NC2CCN(c3ccc(C#N)cn3)CC2)n1")
75.3

(a) CCC1CN(c2ccc(C#N)nn2)CCC1Nc1ccnc(Nc2cc(C)n(C)n2)n1 (centres unmarked)
(b) CCC1CN(c2ccc(C#N)nn2)CCC1Nc1nc(Nc2ccc3c(C)n(C)nc3c2)ncc1Cl (centres unmarked)
Looking at recorded values for F, does a or b come in lower? The response must carry the label of the picked entry. b

* * *

# assay: Pharmacokinetics after intravenous and oral administration in rats
# Assay type: in vivo
# conditions: rat, plasma, iv dosing, 1 mg/kg
measure: half-life (min)

(P) CCC1CN(c2ccc(C#N)cn2)CCC1N(C)c1nc(Nc2ccc3c(C)n(C)nc3c2)ncc1Cl (stereo not shown) [Ex. 20]
(Q) Cc1cc(Nc2ncc(Cl)c(NC3CCN(c4ccc(C#N)cn4)CC3)n2)n[nH]1 [Ex. 3]
Looking at recorded values for half-life, does P or Q come in lower? The response must carry the label of the picked entry. Q

(I) CCC1CN(c2ccc(C#N)nn2)CCC1Nc1nc(Nc2cc(C)n(C)n2)ncc1Cl (stereo not shown) [Ex. 15]
(II) Cc1c2ccc(Nc3ncc(Cl)c(NC4CCN(c5ccc(C#N)nn5)CC4)n3)cc2nn1C [Ex. 12]
(III) CCC1CN(c2ccc(C#N)cn2)CCC1Nc1nc(Nc2ccc3c(C)n(C)nc3c2)ncc1Cl (stereo not shown) [Ex. 23]
Ascending by half-life, please. Reply format: the labels, ordered as requested. II, I, III
(II: 29.4 min, I: 45.6 min, III: 81 min)

(1) Cc1cc(Nc2ncc(Cl)c(N(C)C3CCN(c4ccc(C#N)cn4)CC3)n2)nn1C [Ex. 9]
(2) Cn1cc2ccc(Nc3ncc(Cl)c(NC4CCN(c5ccc(C#N)nn5)CC4)n3)cc2n1 [Ex. 25]
(3) CCC1CN(c2ccc(C#N)cn2)CCC1N(C)c1nc(Nc2cc(C)n(C)n2)ncc1Cl (stereo not shown) [Ex. 18]
Could you please sort these 3 entries by half-life from high to low? Reply format: the labels, ordered as requested. 3, 1, 2

(P) CCC1CN(c2ccc(C#N)cn2)CCC1Nc1nc(Nc2cc(C)n(C)n2)ncc1Cl (stereo not shown) [Ex. 21]
(Q) Cc1nn(C)cc1Nc1ncc(Cl)c(N(C)C2CCN(c3ccc(C#N)cn3)CC2)n1 [Ex. 14]
Looking at recorded values for half-life, does P or Q come in lower? The response must carry the label of the picked entry. Q

Every entry's value here was drawn from patent US10059689B2.
